All values here come from patent US8399689B2.

- Test system: methicillin-resistant S. aureus (MRSA, ATCC BAA-41)
- EXPERIMENTAL PROTOCOL: Microbroth dilution assay, MRSA
- Format: cell-based, Staphylococcus aureus
- TEST SETTINGS: Staphylococcus aureus, microbroth dilution; concentration at which growth is reduced by 50%; read-out: MIC50 (μg/mL) MRSA

COMPOUND	MIC50 [µg/mL]
Oc1cc(O)cc(C/C(Cl)=C\Cc2cc(Oc3c(O)cc(C/C(Cl)=C\Cc4cc(O)c(Cl)cc4O)cc3O)c(Cl)cc2O)c1 [Compound 5, chrysophaentin 5]	8.9
Oc1cc(O)c2c(c1)C/C(Cl)=C\Cc1cc(c(Cl)cc1O)Oc1c(O)cc(cc1O)C/C(Cl)=C\Cc1cc(c(Cl)cc1O)O2 [Compound 1, chrysophaentin 1]	1.5
Oc1cc(O)c2c(c1)C/C(Cl)=C\Cc1cc(c(Br)cc1O)Oc1c(O)cc(cc1O)C/C(Cl)=C\Cc1cc(c(Br)cc1O)O2 [Compound 4, chrysophaentin 4]	19

* * *

- System: Enterococcus faecium (EF, ATCC 49032)
- EXPERIMENTAL PROTOCOL: Agar disk diffusion assay, E. faecium
- Assay type: cell-based
- TEST SETTINGS: Lowest concentrations leading to 8-10 mm zones of inhibition
READOUT LABEL: Agar disk diffusion (μg/disk) E. faecium

MOL	READOUT LABEL	REPORTED
Oc1cc(O)c2c(c1)C/C(Cl)=C\Cc1cc(c(Cl)cc1O)Oc1c(O)cc(cc1O)C/C(Cl)=C\Cc1cc(c(Cl)cc1O)O2	Agar disk diffusion (μg/disk) E. faecium	2 μg/disk
Oc1cc(Cl)c2cc1C/C=C(/Cl)Cc1cc(O)c(c(O)c1)Oc1cc(c(O)cc1Cl)C/C=C(/Cl)Cc1cc(O)c(c(O)c1)O2	Agar disk diffusion (μg/disk) E. faecium	10 μg/disk
Oc1cc(O)c2c(c1)C/C(Cl)=C\Cc1cc(c(Br)cc1O)Oc1c(O)cc(cc1O)C/C(Cl)=C\Cc1cc(c(Br)cc1O)O2	Agar disk diffusion (μg/disk) E. faecium	25 μg/disk
Oc1cc(O)cc(C/C(Cl)=C\Cc2cc(Oc3c(O)cc(C/C(Cl)=C\Cc4cc(O)c(Cl)cc4O)cc3O)c(Cl)cc2O)c1	Agar disk diffusion (μg/disk) E. faecium	25 μg/disk
